The compounds listed here are annotated with their viability, T/C.
# Tested on: 885724-159-R-J1-PDC KRAS PDC multicell spheroid viability
# assay.text: Anticancer human tumor 885724-159-R-J1-PDC patient-derived pancreatic adenocarcinoma cell line growth inhibition [KRAS2]
# condition.context: second compound 3.16 µM; first compound 1 µM; stronger effect = lower value
readout.name: viability, T/C (%)

compound="COc1cc(Nc2ncc3c(n2)-c2ccc(Cl)cc2C(c2c(F)cccc2OC)=NC3)ccc1C(=O)O + CC1OCC2(CCN(c3cnc(Sc4ccnc(N)c4Cl)c(N)n3)CC2)C1N" readout_name="viability, T/C" unit_of_measurement=% result_value=73.8
compound="CCNC(=O)CC1N=C(c2ccc(Cl)cc2)c2cc(OC)ccc2-n2c(C)nnc21 (stereo not given) + CC1OCC2(CCN(c3cnc(Sc4ccnc(N)c4Cl)c(N)n3)CC2)C1N" readout_name="viability, T/C" unit_of_measurement=% result_value=37.9
compound="CC1OCC2(CCN(c3cnc(Sc4ccnc(N)c4Cl)c(N)n3)CC2)C1N (stereo not given) + C=CC(=O)N1CCN(c2nc(OCC3CCCN3C)nc3c2CCN(c2cccc4cccc(C)c24)C3)CC1CC#N" readout_name="viability, T/C" unit_of_measurement=% result_value=33.6
compound="CCN1CCN(Cc2ccc(Nc3ncc(F)c(-c4cc(F)c5nc(C)n(C(C)C)c5c4)n3)nc2)CC1 + C=CC(=O)N1CCN(c2nc(OCC3CCCN3C)nc3c2CCN(c2cccc4cccc(C)c24)C3)CC1CC#N" readout_name="viability, T/C" unit_of_measurement=% result_value=47.6
compound="CCNC(=O)CC1N=C(c2ccc(Cl)cc2)c2cc(OC)ccc2-n2c(C)nnc21 (stereo not given) + C=CC(=O)N1CCN(c2nc(=O)n(-c3c(C)ccnc3C(C)C)c3nc(-c4c(O)cccc4F)c(F)cc23)C(C)C1" readout_name="viability, T/C" unit_of_measurement=% result_value=51.8

* * *

# Tested on: 885724-159-R-J1-PDC KRAS PDC multicell spheroid viability
# assay.text: Anticancer human tumor 885724-159-R-J1-PDC cell line growth inhibition [KRAS2];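 note: spheroids exposed to agents for 7 days before readout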
# condition.context: curve of first compound; second compound 10 µM
The compounds listed here are annotated with their IC50.
readout.name: IC50 (nM)

compound="CC(=O)OC12COC1CC(O)C1(C)C(=O)C(O)C3=C(C)C(OC(=O)C(O)C(NC(=O)OC(C)(C)C)c4ccccc4)CC(O)(C(OC(=O)c4ccccc4)C21)C3(C)C (stereo not given) + CNCc1ccccc1-c1csc(C(C)Nc2nc(C)nc3cc(OC)c(OC)cc23)c1" op=< result_value=10
compound="CC(=O)Nc1cccc(-n2c(=O)n(C3CC3)c(=O)c3c(Nc4ccc(I)cc4F)n(C)c(=O)c(C)c32)c1 + C=CC(=O)N1CCN(c2nc(=O)n(-c3c(C)ccnc3C(C)C)c3nc(-c4c(O)cccc4F)c(F)cc23)C(C)C1" op== result_value=0.33
compound="CC(C)NCC(C(=O)N1CCN(c2ncnc3c2C(C)CC3O)CC1)c1ccc(Cl)cc1 (stereo not given) + C=CC(=O)N1CCN(c2nc(=O)n(-c3c(C)ccnc3C(C)C)c3nc(-c4c(O)cccc4F)c(F)cc23)C(C)C1" op== result_value=175
compound="COc1cc(Nc2ncc3c(n2)-c2ccc(Cl)cc2C(c2c(F)cccc2OC)=NC3)ccc1C(=O)O + CNCc1ccccc1-c1csc(C(C)Nc2nc(C)nc3cc(OC)c(OC)cc23)c1" op=< result_value=31.6
compound="CCNC(=O)CC1N=C(c2ccc(Cl)cc2)c2cc(OC)ccc2-n2c(C)nnc21 (stereo not given) + CC1OCC2(CCN(c3cnc(Sc4ccnc(N)c4Cl)c(N)n3)CC2)C1N" op== result_value=256
